Biological target: BCAT2 (Homo sapiens, UniProt O15382)
Sequence (O15382 28-392): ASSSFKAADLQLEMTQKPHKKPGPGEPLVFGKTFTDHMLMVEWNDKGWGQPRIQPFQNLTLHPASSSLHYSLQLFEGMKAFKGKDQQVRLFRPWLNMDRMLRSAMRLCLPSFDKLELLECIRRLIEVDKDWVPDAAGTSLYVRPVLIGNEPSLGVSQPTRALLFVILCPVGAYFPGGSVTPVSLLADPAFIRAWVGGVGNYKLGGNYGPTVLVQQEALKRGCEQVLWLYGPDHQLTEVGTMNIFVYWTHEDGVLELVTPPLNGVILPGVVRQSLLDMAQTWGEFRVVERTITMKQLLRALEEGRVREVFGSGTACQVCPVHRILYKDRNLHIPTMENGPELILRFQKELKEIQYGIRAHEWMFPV
Test: BCAT2 in vitro enzyme inhibition assay (hBCAT2, glutamate dehydrogenase/diaphorase/resazurin coupled fluorescence read)
Type: biochemical
Details: hBCAT2, 1 h preincubation at 25° C., one hour reaction; average where tested multiple times
# maps each entry to its IC50

A selection of reference data follows.
# molecule, val
rows = [
    ("O=C(N[C@H]1CCC[C@@H](n2c(-c3ccccc3OC(F)F)nc3cnc(-c4nc[nH]n4)cc32)C1)c1cc(Cl)ccn1", "< 100 nM"),
    ("O=C1c2ccc(F)cc2C(=O)N1[C@H]1CCC[C@@H](n2c(-c3ccccc3F)nc3cnc(-c4nc[nH]n4)cc32)C1", "< 100 nM"),
    ("NCCOc1ccc(Cl)cc1C(=O)N[C@H]1CCC[C@@H](n2c(-c3ccccc3F)nc3cnc(-c4nc[nH]n4)cc32)C1", "< 100 nM"),
    ("O=C(N[C@H]1CCC[C@@H](n2c(-c3ccccc3F)nc3cnc(-c4nc[nH]n4)cc32)C1)c1ccccc1Cl", "< 100 nM"),
    ("O=C1c2cc(Cl)ccc2CN1[C@H]1CCC[C@@H](n2c(-c3ccccc3F)nc3cnc(-c4nc[nH]n4)cc32)[C@@H]1O", "< 100 nM"),
    ("CN1C[C@@H](NC(=O)c2cc(Cl)ccn2)C[C@@H](n2c(-c3ccccc3F)nc3cnc(-c4nc[nH]n4)cc32)C1", "100 to 500 nM"),
]

Now consider the entry below.
In: Given the entry COc1ccc(Cl)cc1C(=O)N[C@H]1CCC[C@@H](n2c(-c3ccccc3C#N)nc3cnc(-c4nc[nH]n4)cc32)[C@@H]1O , what IC50 was observed with BCAT2 (Homo sapiens, UniProt O15382)?
Out: < 100 nM

###

Target: UniProt O15382
Experiment: BCAT2 in vitro enzyme inhibition assay (hBCAT2, glutamate dehydrogenase/diaphorase/resazurin coupled fluorescence read)
Type: biochemical
Settings: hBCAT2, 1 h preincubation at 25° C., one hour reaction; average where tested multiple times
measured.endpoint: IC50

Example molecules with recorded IC50:
# entry.smiles, measured.endpoint, val
measured = [
    ("CCOc1ccc(Cl)cc1C(=O)N[C@H]1CCC[C@@H](n2c(-c3ncccc3F)nc3cnc(-c4nc[nH]n4)cc32)C1", "IC50", "< 0.1 µM"),
    ("COc1ccc(Cl)cc1C(=O)N[C@@H]1C[C@H](n2c(-c3ccccc3F)nc3cnc(-c4nc[nH]n4)cc32)CN(C)C1", "IC50", "< 0.1 µM"),
]

In: Look up IC50: O=C(N[C@H]1CCC[C@@H](n2c(-c3ncccc3OC(F)F)nc3cnc(-c4nc[nH]n4)cc32)C1)c1cc(F)ccc1F
Out: < 0.1 µM

###

Biological target: UniProt:O15382
Test: BCAT2 cell inhibition using engineered A549 cells (MUT KO, BCAT1 KO; 13C6-KMV formation by LC-MS/MS)
Format: cell-based
Set-up: expressed endogenous BCAT2; endogenous in cells; host or cells: A549 cells, MUT knockout and BCAT1 knockout
Conditions: engineered A549 cells, 24 hours, 13C6-KMV in media; average where tested multiple times; read-out: BCAT2 Cell Inhibition (IC50)
measured.endpoint: IC50

In: Entry O=C(N[C@@H]1C[C@@H](OC(F)F)C[C@H](n2c(-c3ccccc3F)nc3cnc(-c4ncn[nH]4)cc32)C1)c1cc(F)ccn1 (relative stereo) [compound 128] : reported IC50 = ?
Out: 100 to 500 nM

###

Each record here notes measured pIC50.
Target: BCAT2 (Homo sapiens, UniProt O15382)
Test: BCAT2 in vitro enzyme inhibition assay (hBCAT2, glutamate dehydrogenase/diaphorase/resazurin coupled fluorescence read)
Format: biochemical
Conditions: hBCAT2, 1 h preincubation at 25° C., one hour reaction; average where tested multiple times
pIC50: −log10 of the molar value.

Solved cases (2 shown):
# entry.smiles, target.desc, val
measured = [
    ("CO[C@@H]1C[C@H](NC(=O)c2cc(F)ccn2)C[C@H](n2c(-c3ccccc3F)nc3cnc(-c4nc[nH]n4)cc32)C1", "BCAT2 (Homo sapiens, UniProt O15382)", "> 7.00"),
    ("CC(C)(O)COc1ccc(Cl)cc1C(=O)N[C@H]1CCC[C@@H](n2c(-c3ccccc3F)nc3cnc(-c4nc[nH]n4)cc32)C1", "BCAT2 (Homo sapiens, UniProt O15382)", "> 7.00"),
]

Now for another entry.
In: # returns recorded pIC50 (system: BCAT2 (Homo sapiens, UniProt O15382)) for COc1ccc(Cl)cc1C(=O)N[C@@H]1C[C@@H](OC)C[C@H](n2c(-c3ccccc3F)nc3cnc(-c4nc[nH]n4)cc32)C1
Out: < 6.00

###

Target: BCAT2 (Homo sapiens)
Assay: BCAT2 in vitro enzyme inhibition assay (hBCAT2, glutamate dehydrogenase/diaphorase/resazurin coupled fluorescence read)
Assay type: biochemical
Conditions: hBCAT2, 1 h preincubation at 25° C., one hour reaction; average where tested multiple times
Each entry below lists one item and its recorded IC50 value.

The following molecules have reported results that may help.
# molecule, measured.endpoint, val
data = [
    ("CC(C)Oc1ccc(Cl)cc1C(=O)N[C@H]1CCC[C@@H](n2c(-c3ncccc3OC(F)F)nc3cnc(-c4nc[nH]n4)cc32)C1 [compound 65]", "IC50", "< 100 nM"),
    ("CO[C@@H]1C[C@@H](NC(=O)c2cc(F)ccn2)C[C@@H](n2c(-c3ccccc3F)nc3ccc(-c4nc[nH]n4)cc32)C1 [Example 220]", "IC50", "> 1000 nM"),
    ("O=C(N[C@H]1CCC[C@@H](n2c(-c3ccccc3OCCO)nc3ccc(-c4nc[nH]n4)cc32)C1)c1cc(F)ccc1F [Example 228]", "IC50", "< 100 nM"),
    ("CO[C@H]1C[C@H](NC(=O)c2cc(F)ccn2)C[C@H](n2c(-c3ccccc3F)nc3ccc(-c4nc[nH]n4)cc32)C1 [Example 221]", "IC50", "< 100 nM"),
    ("N#Cc1ccc(F)cc1C(=O)N[C@H]1CCC[C@@H](n2c(-c3ccccc3F)nc3cnc(-c4nc[nH]n4)cc32)C1 [Example 98]", "IC50", "< 100 nM"),
]

Note: attention shifts to another entry.
In: Returns the measured IC50 for the input molecule. Input: O=C(N[C@H]1CCC[C@@H](n2c(-c3ccccc3OCCO)nc3cnc(-c4nc[nH]n4)cc32)C1)c1cc(Cl)ccc1F [Example 86]
Out: < 100 nM

###

Entries and their IC50 values follow.
Target: BCAT2 (Homo sapiens)
Test: BCAT2 in vitro enzyme inhibition assay (hBCAT2, glutamate dehydrogenase/diaphorase/resazurin coupled fluorescence read)
Assay type: biochemical
Settings: hBCAT2, 1 h preincubation at 25° C., one hour reaction; average where tested multiple times

Known IC50 results, listed for orientation:
# compound, measured.endpoint, val
measured = [
    ("CO[C@H]1C[C@H](N2Cc3ccc(F)cc3C2=O)C[C@H](n2c(-c3ccccc3OCCO)nc3ccc(-c4ncco4)cc32)C1 [Example 241]", "IC50", "< 100 nM"),
    ("CC(=O)N1CC(N2Cc3ccc(F)cc3C2=O)CC(n2c(-c3c(F)cccc3F)nc3cnc(-c4nc[nH]n4)cc32)C1 (centres unmarked) [Example 201]", "IC50", "< 100 nM"),
    ("COc1ccc(Cl)cc1C(=O)N[C@@H]1C[C@H](n2c(-c3ncccc3F)nc3cnc(-c4nc[nH]n4)cc32)CN(C)C1 [Example 137]", "IC50", "100 to 500 nM"),
    ("NC1CC(N2Cc3ccc(F)cc3C2=O)CC(n2c(-c3ccccc3F)nc3cnc(-c4nc[nH]n4)cc32)C1 (centres unmarked) [Example 196]", "IC50", "< 100 nM"),
    ("O=C(N[C@H]1CCC[C@@H](n2c(-c3ccccc3F)nc3cnc(-c4nc[nH]n4)cc32)C1)c1cc(F)ccc1F [Example 58]", "IC50", "< 100 nM"),
]

In: Data request, read-out IC50, for CO[C@H]1C[C@H](NC(=O)c2cc(Cl)ccc2OCCO)C[C@H](n2c(-c3ccccc3F)nc3cnc(-c4nc[nH]n4)cc32)C1 [Example 119]
Out: < 100 nM

In: For the compound shown here, O=C(N[C@H]1CCC[C@@H](n2c(-c3ccccc3F)nc3cnc(-c4nc[nH]n4)cc32)C1)c1cc(C(F)F)ccn1 [compound 100] , give the reported IC50.
Out: < 100 nM

In: Look up IC50: COCCOc1ccc(Cl)cc1C(=O)N[C@H]1CCC[C@@H](n2c(-c3ccccc3F)nc3cnc(-c4nc[nH]n4)cc32)C1 [Example 54]
Out: < 100 nM

In: Return reported IC50; argument: COCCOc1ccc(Cl)cc1C(=O)N[C@H]1CCC[C@@H](n2c(-c3ccccc3F)nc3cnc(-n4nccn4)cc32)C1 [Example 72]
Out: < 100 nM
